Known activity change, negative = inhibition of a selection of compounds
assay: NFAT Signaling Pathway (AID 444); details: Jurkat NFAT-bla M1, carbachol, beta-lactamase ratio, 5 h; at 7.69 µM (top of the series) unless noted;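 note: carbachol stimulus at about its EC50 of 1 µM final; % is set by controls: 0 for no effect and ±100 for the full control effect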
Records with an inconclusive call do not appear. Calls of active or inactive are those of the source. Calls come from the whole dose curve; as a rule, active = well fitted curve in either direction with a large enough effect (not every such curve was filed as active); inconclusive = small, poorly fitted or top-dose-only effect, or another doubt; inactive = flat fitted curve, though single readings scatter.

Completed entries (count: 6):
> print(dat)
                             compoundsmiles           measured
1         O=C1C(=O)c2ccccc2C(O)=C1Cc1ccccc1   4.13% (inactive)
2             O=C(O)[C@@H](S)[C@H](S)C(=O)O  -7.29% (inactive)
3  Clc1ccc(CSc2ncnc3c2ncn3[C@@H]2CCCCO2)cc1   12.9% (inactive)
4                      C/C(CC/C(C)=N/O)=N/O   2.59% (inactive)
5  Cc1cc(C)c2nc3c(c([C@H](O)[C@@H]4CCCCN4)c2c1)CC/C3=C/c1ccc(Cl)cc1  -2.24% (inactive)
6                 CCCCNc1nc(SC)nc2nc[nH]c12   9.44% (inactive)

Please find the next compound below.
Task item: Please report the recorded activity change, negative = inhibition for COc1cccc(Nc2ncc3ncc(=O)n(C4CC4)c3n2)c1 .
Reply: -22.2% (inactive)

====

Assay: Cell Viability - Hek293 (AID 427);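 note: cells exposed to compound for 40 hours at 37 °C before reading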
Conditions: qHTS
Source text: NIH Chemical Genomics Center [NCGC] NIH Molecular Libraries Screening Centers Network [MLSCN] National Institutes of Environmental Health Sciences [NIEHS] National Toxicology Program [NTP] We have developed a 1536-well cell-based assay for quantitative high throughput screening (qHTS) against a number of cell lines to determine in vitro cytotoxicity of small molecules. […] 8. Detection; Luminescence; Viewlux plate reader […]
Records with an inconclusive call do not appear. Calls of active or inactive are those of the source.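 How the source made its calls: active means compounds whose dose-response curve shows a full or clear partial loss of cell viability, called from curve shape rather than a numeric limit; inconclusive means weak partial curves or an effect only at the top dose; inactive means no dose-dependent loss of viability.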
// classify into TRUE = active, FALSE = inactive

Before answering, review these 2 worked examples.
> print(dat)
                                   compound  category
1                                Nc1ccccc1O     FALSE
2  N=C1C=CC(=C(c2ccc(N)cc2)c2ccc(N)cc2)C=C1      TRUE

Task item: Hi, do you know how O=C(O)/C=C/c1ccc(/C=C/C(=O)O)cc1 came out in this test?
Reply: FALSE

Task item: Hi, do you know how COc1ccc(C(=O)Nc2ccccc2)cc1[N+](=O)[O-] came out in this test?
Reply: FALSE

Task item: Hi, do you know how CC1=C(/C=C/C(C)=C/C=C/C(C)=C/C=O)C(C)(C)CCC1 came out in this test?
Reply: TRUE

Task item: Hi, do you know how Cc1c(N)cccc1Cl came out in this test?
Reply: FALSE

Task item: Hi, do you know how COc1ccc([N+](=O)[O-])cc1N came out in this test?
Reply: FALSE

Task item: Hi, do you know how c1ccc(COCc2ccccc2)cc1 came out in this test?
Reply: FALSE

Task item: Hi, do you know how C/C(Cl)=C/CCl came out in this test?
Reply: FALSE

Task item: Hi, do you know how c1ccc2c(c1)ccc1ccccc12 came out in this test?
Reply: FALSE

Task item: Hi, do you know how CCCCCCCCOc1ccc(C(=O)O)cc1 came out in this test?
Reply: FALSE

Task item: Hi, do you know how CC(=O)OCc1ccc2c(c1)OCO2 came out in this test?
Reply: FALSE

Task item: Hi, do you know how c1ccc(SCCSc2ccccc2)cc1 came out in this test?
Reply: FALSE

Task item: Hi, do you know how C1CCCNCC1 came out in this test?
Reply: FALSE

Task item: Hi, do you know how CC(/C=C/C=C(C)/C=C/C(=O)O)=C\C=C\C=C(C)\C=C\C=C(C)\C=C\C(=O)O came out in this test?
Reply: FALSE

Task item: Hi, do you know how Clc1nc2ccccc2nc1Cl came out in this test?
Reply: FALSE

Task item: Hi, do you know how C[Si](C)(C)Cl came out in this test?
Reply: FALSE

Task item: Hi, do you know how CCCCCCc1ccc(-c2ccc(C#N)cc2)cc1 came out in this test?
Reply: FALSE

Task item: Hi, do you know how c1ccc2ncccc2c1 came out in this test?
Reply: FALSE

====

assay: Cell Viability - LYMP2-006 (AID 978); conditions: LYMP2-006 lymphoblastoid cell viability, qHTS; series mostly up to 92.2 µM;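 note: cells exposed to compound for 24 hours; nearly all actives have a fitted effect of over 60% in size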
Inconclusive results are not listed. Activity calls are given as the source filed them. Calls follow the shape of the dose curve; as a rule, active = well fitted cell-killing curve with a large enough effect; inconclusive = small, poorly fitted or top-dose-only effect; inactive = flat fitted curve, though single readings scatter.
// classify into TRUE = active, FALSE = inactive

> print(dat)
                                   compound  category
1        CC/C=C/C/C=C/C/C=C/CCCCCCCC(=O)OCC      TRUE
2  Brc1cc(Oc2cc(Br)c(Br)c(Br)c2Br)c(Br)c(Br)c1Br     FALSE
3     COc1cc(-c2ccc(N=C=O)c(OC)c2)ccc1N=C=O     FALSE
4               C=CC1CO1 (stereo not given)     FALSE

# evaluate next
Task item: Hi, do you know how Cc1ccc(N)cc1[N+](=O)[O-] came out in this test?
Reply: FALSE

====

assay: Cell Viability - HUV-EC-C (AID 542); conditions: HUV-EC-C endothelial cell viability, qHTS; series mostly up to 92.2 µM;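 note: cells exposed to compound for 40 hours; nearly all actives have a fitted effect of over 35% in size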
Records with an inconclusive call do not appear. Calls of active or inactive are those of the source. The call rests on the fitted dose curve; in most records, active means well fitted cell-killing curve with a large enough effect; inconclusive means small, poorly fitted or top-dose-only effect, or effect the other way; inactive means flat fitted curve, though single readings scatter.
// classify into active, inactive

Before answering, review these 6 worked examples.
> print(dat)
                                   compound  category
1  CCOC(=O)C1OC1c1ccccc1 (centres undefined)  inactive
2             Nc1ccc2c(c1)C(=O)c1ccccc1C2=O    active
3  Nc1cnn([C@@H]2O[C@H](CO)[C@@H](O)[C@H]2O)c(=O)n1  inactive
4        CCc1ccc(C(c2ccc(CC)cc2)C(Cl)Cl)cc1  inactive
5            CCCCCCc1ccc(-c2ccc(C#N)cc2)cc1  inactive
6                       CCOc1ccc2nc(N)sc2c1  inactive

Task item: Hi, do you know how CCCCOC(=O)COc1ccc(Cl)cc1Cl came out in this test?
Reply: inactive

Task item: Hi, do you know how O=C1OC(=O)c2ccccc21 came out in this test?
Reply: inactive

Task item: Hi, do you know how N=C1C=CC(=C(c2ccc(N)cc2)c2ccc(N)cc2)C=C1 came out in this test?
Reply: active

====

experiment: Stat Signaling Pathway (AID 446); conditions: ME-180 (cervical carcinoma) SIE beta-lactamase reporter, IL-6 stimulated, 5 h; at 7.69 µM (top of the series) unless noted;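 note: ME-180 cervical cancer cells given 40 pM IL-6 alongside compound; SIE-controlled beta-lactamase reporter measured as 460/530 nm FRET emission ratio; % is set by controls: 0 for no effect and ±100 for the full control effect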
Inconclusive results are not listed.
measure: activity, negative = inhibition (%)
Write it as a number; the unit % goes unstated.

Completed entries (count: 5):
> print(dat)
                                   compound                          measure  measured
1                   C[C@@H](CSC(=N)N)C(N)=O  activity, negative = inhibition      9.57
2  O=C(O)c1cc(-c2ccc3cc4c(cc3c2)OCO4)nc2ccccc12  activity, negative = inhibition     -8.03
3  COc1cc2c(cc1O)[C@@H](c1cc(O)c(O)c(OC)c1)[C@@](O)(C(=O)O)[C@@H](CO)[C@@H]2O  activity, negative = inhibition      4.61
4        C[C@@H](CS(=O)(=O)Cc1ccccc1)C(N)=O  activity, negative = inhibition      3.43
5            NNC(=O)c1ccc[n+](CCc2ccccc2)c1  activity, negative = inhibition    -0.167

Task item: Please report the recorded activity, negative = inhibition for O=C1C(Cl)=C(Sc2nnc3c4ccccc4c4ccccc4c3n2)C(=O)c2ccccc21 .
Reply: -24.6

Task item: Please report the recorded activity, negative = inhibition for OCCCN=C1CCCCC1 .
Reply: -19.6

Task item: Please report the recorded activity, negative = inhibition for COc1cc(Cl)c(CC(=O)c2c[nH]c3ccccc23)cc1OC .
Reply: -15.8

====

assay: Cell Viability - LYMP1-002 - Assay at 40 hr (AID 994); settings: LYMP1-002 lymphoblastoid cell viability; series mostly up to 92.2 µM; note: nearly all actives have a fitted effect of over 60% in size
Results filed as inconclusive are left out. Activity calls are given as the source filed them. Calls come from the whole dose curve; as a rule, active = well fitted cell-killing curve with a large enough effect; inconclusive = small, poorly fitted or top-dose-only effect; inactive = flat fitted curve, though single readings scatter.
// classify into active, inactive

Before answering, review these 3 worked examples.
> print(dat)
                             compoundsmiles  category
1                     c1ccc(COCc2ccccc2)cc1  inactive
2                           OCC(CO)(CBr)CBr  inactive
3  Oc1cc2c(cc1O)[C@H]1c3ccc(O)c(O)c3OC[C@@]1(O)C2    active

Task item: Hi, do you know how Oc1ccc(O)c2c(O)cccc12 came out in this test?
Reply: inactive

Task item: Hi, do you know how Nc1ccc2c(c1)C(=O)c1ccccc1C2=O came out in this test?
Reply: inactive

Task item: Hi, do you know how CCCCNCC came out in this test?
Reply: inactive

Task item: Hi, do you know how COc1ccc([N+](=O)[O-])cc1N came out in this test?
Reply: inactive

Task item: Hi, do you know how c1c[nH]cn1 came out in this test?
Reply: inactive

The values you see were collected from PubChem BioAssay (NCATS).
